Task for the reader: assign each of the following compounds its reported Ki.
- experimental system: Induced myeloid leukemia cell differentiation protein Mcl-1 (Homo sapiens, UniProt Q07820)
- Sequence (Q07820 whole entry): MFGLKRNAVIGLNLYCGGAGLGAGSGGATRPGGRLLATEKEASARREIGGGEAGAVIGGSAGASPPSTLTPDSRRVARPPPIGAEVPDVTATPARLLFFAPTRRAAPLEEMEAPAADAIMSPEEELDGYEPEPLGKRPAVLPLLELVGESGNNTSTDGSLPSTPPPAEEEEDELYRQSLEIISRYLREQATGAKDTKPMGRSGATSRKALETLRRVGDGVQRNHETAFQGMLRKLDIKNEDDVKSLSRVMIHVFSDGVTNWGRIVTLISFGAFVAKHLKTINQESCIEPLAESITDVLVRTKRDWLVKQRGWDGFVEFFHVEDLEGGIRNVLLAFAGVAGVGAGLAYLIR
- assay details: Fluorescence Polarization Competition Assay

Notebook: CCOC(=O)N(C)[C@@H]1/C=C/COC(C)(C)C(=O)NS(=O)(=O)c2ccc3c(c2)N(C[C@@H]2CC[C@H]21)C[C@@]1(CCCc2cc(Cl)ccc21)CO3 [US11130769, Ex. No. 252] , Ki read as < 100 nM

Notebook: CN(C)CCN(C)C(=O)O[C@H]1/C=C/COC(C)(C)C(=O)NS(=O)(=O)c2ccc3c(c2)N(C[C@@H]2CC[C@H]21)C[C@@]1(CCOc2cc(Cl)ccc21)CO3 , Ki read as < 300 nM

Notebook: COC1CN(C(=O)O[C@H]2/C=C/COC(C)(C)C(=O)NS(=O)(=O)c3ccc4c(c3)N(C[C@@H]3CC[C@H]32)C[C@@]2(CCOc3cc(Cl)ccc32)CO4)C1 , Ki read as < 300 nM

Notebook: CN(C)[C@@H]1CCN(C(=O)O[C@H]2/C=C/COC(C)(C)C(=O)NS(=O)(=O)c3ccc4c(c3)N(C[C@@H]3CC[C@H]32)C[C@@]2(CCOc3cc(Cl)ccc32)CO4)C1 , Ki read as < 300 nM

Notebook: CN(C)C[C@H]1CCCN1C(=O)O[C@H]1/C=C/COC(C)(C)C(=O)NS(=O)(=O)c2ccc3c(c2)N(C[C@@H]2CC[C@H]21)C[C@@]1(CCCc2cc(Cl)ccc21)CO3 [US11130769, Ex. No. 169] , Ki read as < 300 nM

###

- experimental system: Induced myeloid leukemia cell differentiation protein Mcl-1 (Homo sapiens)
- assay details: Fluorescence Polarization Competition Assay
Task for the reader: assign each of the following compounds its reported Ki.

Notebook: CN1C/C=C/[C@H](OC(=O)NC2CC2)[C@@H]2CC[C@H]2CN2C[C@@]3(CCCc4cc(Cl)ccc43)COc3ccc(cc32)S(=O)(=O)NC(=O)C1(C)C , Ki read as < 300 nM

Notebook: CN(C)C(=O)O[C@@H]1/C=C/CN(C)C2(CCC2)C(=O)NS(=O)(=O)c2ccc3c(c2)N(C[C@@H]2CC[C@H]21)C[C@@]1(CCCc2cc(Cl)ccc21)CO3 , Ki read as < 100 nM

Notebook: CO[C@H]1/C=C/CN2CCC[C@H]2C(=O)NS(=O)(=O)c2ccc3c(c2)N(C[C@@H]2CC[C@H]21)C[C@@]1(CCCc2cc(Cl)ccc21)CO3 , Ki read as < 100 nM

Notebook: CCO[C@@H]1CCN(C(=O)O[C@H]2/C=C/COC(C)(C)C(=O)NS(=O)(=O)c3ccc4c(c3)N(C[C@@H]3CC[C@H]32)C[C@@]2(CCOc3cc(Cl)ccc32)CO4)C1 , Ki read as < 300 nM

Notebook: CN(C)C1CN(C(=O)O[C@H]2/C=C/COC(C)(C)C(=O)NS(=O)(=O)c3ccc4c(c3)N(C[C@@H]3CC[C@H]32)C[C@@]2(CCOc3cc(Cl)ccc32)CO4)C1 , Ki read as < 300 nM

Notebook: CO[C@@H]1/C=C/CN(C)C(=O)NS(=O)(=O)c2ccc3c(c2)N(C[C@@H]2CC[C@H]21)C[C@@]1(CCCc2cc(Cl)ccc21)CO3 , Ki read as < 100 nM
